Target: LHRH (Rattus norvegicus, UniProt P30969)
Construct: endogenous in cells
Sequence (P30969 1-327): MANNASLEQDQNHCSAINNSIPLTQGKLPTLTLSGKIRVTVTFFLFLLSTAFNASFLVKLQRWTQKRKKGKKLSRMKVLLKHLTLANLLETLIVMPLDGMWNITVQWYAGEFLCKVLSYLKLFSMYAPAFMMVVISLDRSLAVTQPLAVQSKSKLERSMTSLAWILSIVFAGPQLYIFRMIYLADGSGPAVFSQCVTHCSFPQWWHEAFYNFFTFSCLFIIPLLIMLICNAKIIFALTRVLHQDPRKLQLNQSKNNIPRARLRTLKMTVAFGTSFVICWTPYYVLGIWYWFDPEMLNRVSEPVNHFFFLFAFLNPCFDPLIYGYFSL
Test: in vitro test for LHRH antagonist potency (pA2)
Type: cell-based
Conditions: negative logarithm of the antagonist concentration required to shift the response curve produced by the agonist leuprolide to two-fold higher concentration
Where a SMILES comes first, the peptide text is derived from it. Side-chain parts run from the residue outwards. [ ]: non-standard residue; d: D form. The star is where a group is joined. d2Nal(N,N-C(O)(CH2)4) = O=C1CCCCN1[C@H](Cc1ccc2ccccc2c1)C(=O)*; Shikimoyl = O=C(C1=C[C@@H](O)[C@@H](O)[C@H](O)C1)*; dPhe(4-Cl) = N[C@H](Cc1ccc(Cl)cc1)C(=O)O; NMeY = CN[C@@H](Cc1ccc(O)cc1)C(=O)O; hArg = N=C(N)NCCCC[C@H](N)C(=O)O; d3Pal = N[C@H](Cc1cccnc1)C(=O)O
Listing of entries alongside the reported Kb.
The reply should be a number in nM, with the unit left off.

CC(C)C[C@H](NC(=O)[C@@H](CCCCNC(=O)CNC(=O)C1=C[C@@H](O)[C@@H](O)[C@H](O)C1)NC(=O)[C@H](Cc1ccc(O)cc1)N(C)C(=O)[C@H](CO)NC(=O)[C@@H](Cc1cccnc1)NC(=O)[C@@H](Cc1ccc(Cl)cc1)NC(=O)[C@@H](Cc1ccc2ccccc2c1)N1CCCCC1=O)C(=O)N[C@@H](CCCNC(=N)N)C(=O)N1CCC[C@H]1C(=O)N[C@H](C)C(N)=O [Example 9] ({d2Nal(N,N-C(O)(CH2)4)}-[dPhe(4-Cl)][d3Pal]S[NMeY][dK]([Gly-Shikimoyl])LRP[dA]-NH2)    0.0355

Dear colleague, I am looking for the recorded Kb of the following compound: CC(C)C[C@H](NC(=O)[C@@H](CCCCNC(=O)C1=C[C@@H](O)[C@@H](O)[C@H](O)C1)NC(=O)[C@H](Cc1ccc(O)cc1)N(C)C(=O)[C@H](CO)NC(=O)[C@@H](Cc1cccnc1)NC(=O)[C@@H](Cc1ccc(Cl)cc1)NC(=O)[C@@H](Cc1ccc2ccccc2c1)N1CCCCC1=O)C(=O)N[C@@H](CCCCNC(=N)N)C(=O)N1CCC[C@H]1C(=O)N[C@H](C)C(N)=O [Example 10] ({d2Nal(N,N-C(O)(CH2)4)}-[dPhe(4-Cl)][d3Pal]S[NMeY][dK](Shikimoyl)L[hArg]P[dA]-NH2)
0.0209

---

target: LHRH (Rattus norvegicus); construct: endogenous in cells; test: in vitro test for LHRH antagonist potency (pA2); format: cell-based; settings: negative logarithm of the antagonist concentration required to shift the response curve produced by the agonist leuprolide to two-fold higher concentration
Where a SMILES comes first, the peptide text is derived from it. [ ]: non-standard residue; d: D form. The star is where a group is joined. d2Nal(N,N-C(O)(CH2)4) = O=C1CCCCN1[C@H](Cc1ccc2ccccc2c1)C(=O)*; d2Nal(N,N-(CH2)3CO) = O=C1CCCN1[C@H](Cc1ccc2ccccc2c1)C(=O)*; Shikimoyl = O=C(C1=C[C@@H](O)[C@@H](O)[C@H](O)C1)*; Acetyl(2-oxopyrrolidin-1-yl) = O=C1CCCN1CC(=O)*; dPhe(4-Cl) = N[C@H](Cc1ccc(Cl)cc1)C(=O)O; d1Nal = N[C@H](Cc1cccc2ccccc12)C(=O)O; Lys(iPr) = CC(C)NCCCC[C@H](N)C(=O)O; NMeY = CN[C@@H](Cc1ccc(O)cc1)C(=O)O; dCit = NC(=O)NCCC[C@@H](N)C(=O)O; d3Pal = N[C@H](Cc1cccnc1)C(=O)O; Nicotinoyl = O=C(c1cccnc1)*
Listing of entries alongside the reported Kb.
The reply should be a number in nM, with the unit left off.

Illustrative cases are given below, each with its answer.
CC(C)C[C@H](NC(=O)[C@@H](CCCCNC(=O)C1=C[C@@H](O)[C@@H](O)[C@H](O)C1)NC(=O)[C@H](Cc1ccc(O)cc1)N(C)C(=O)[C@H](CO)NC(=O)[C@@H](Cc1cccnc1)NC(=O)[C@@H](Cc1ccc(Cl)cc1)NC(=O)[C@@H](Cc1ccc2ccccc2c1)N1CCCCC1=O)C(=O)N[C@@H](CCCNC(=N)N)C(=O)N1CCC[C@H]1C(=O)N[C@H](C)C(N)=O [Example 8] ({d2Nal(N,N-C(O)(CH2)4)}-[dPhe(4-Cl)][d3Pal]S[NMeY][dK](Shikimoyl)LRP[dA]-NH2)    0.0129
CC(C)C[C@H](NC(=O)[C@@H](CCCCNC(=O)C1=C[C@@H](O)[C@@H](O)[C@H](O)C1)NC(=O)[C@H](Cc1ccc(O)cc1)N(C)C(=O)[C@H](CO)NC(=O)[C@@H](Cc1cccnc1)NC(=O)[C@@H](Cc1ccc(Cl)cc1)NC(=O)[C@@H](Cc1ccc2ccccc2c1)N1CCCC1=O)C(=O)N[C@@H](CCCNC(=N)N)C(=O)N1CCC[C@H]1C(=O)N[C@H](C)C(N)=O [Example 2] ({d2Nal(N,N-(CH2)3CO)}-[dPhe(4-Cl)][d3Pal]S[NMeY][dK](Shikimoyl)LRP[dA]-NH2)    0.0263

Dear colleague, I am looking for the recorded Kb of the following molecule: CC(C)C[C@H](NC(=O)[C@@H](CCCNC(N)=O)NC(=O)[C@H](Cc1ccc(O)cc1)N(C)C(=O)[C@H](CO)NC(=O)[C@@H](Cc1cccnc1)NC(=O)[C@@H](Cc1ccc(Cl)cc1)NC(=O)[C@@H](Cc1ccc2ccccc2c1)N1CCCC1=O)C(=O)N[C@@H](CCCNC(=N)N)C(=O)N1CCC[C@H]1C(=O)N[C@H](C)C(N)=O [Example 1] ({d2Nal(N,N-(CH2)3CO)}-[dPhe(4-Cl)][d3Pal]S[NMeY][dCit]LRP[dA]-NH2)
0.00813

Dear colleague, I am looking for the recorded Kb of the following molecule: CC(C)C[C@H](NC(=O)[C@@H](CCCNC(N)=O)NC(=O)[C@H](Cc1ccc(O)cc1)N(C)C(=O)[C@H](CO)NC(=O)[C@@H](Cc1cccc2ccccc12)NC(=O)[C@@H](Cc1ccc(Cl)cc1)NC(=O)CN1CCCC1=O)C(=O)N[C@@H](CCCNC(=N)N)C(=O)N1CCC[C@H]1C(=O)N[C@H](C)C(N)=O [Example 14] ({Acetyl(2-oxopyrrolidin-1-yl)}-[dPhe(4-Cl)][d1Nal]S[NMeY][dCit]LRP[dA]-NH2)
0.0178

Dear colleague, I am looking for the recorded Kb of the following molecule: CC(C)C[C@H](NC(=O)[C@@H](CCCCNC(=O)c1cccnc1)NC(=O)[C@H](Cc1ccc(O)cc1)N(C)C(=O)[C@H](CO)NC(=O)[C@@H](Cc1cccnc1)NC(=O)[C@@H](Cc1ccc(Cl)cc1)NC(=O)[C@@H](Cc1ccc2ccccc2c1)N1CCCCC1=O)C(=O)N[C@@H](CCCCNC(C)C)C(=O)N1CCC[C@H]1C(=O)N[C@H](C)C(N)=O [Example 13] ({d2Nal(N,N-C(O)(CH2)4)}-[dPhe(4-Cl)][d3Pal]S[NMeY][dK](Nicotinoyl)L[Lys(iPr)]P[dA]-NH2)
0.0178

Cited source for all entries: patent US5516759A
